- measurement.target: Saccharomyces cerevisiae α-glucosidase
- test.description: α-Glucosidase inhibitory activity assay (PNPG substrate)
- setup.conditions: main flavonoids and acarbose (Table 5)
observation.type: IC50 (µM)
Field: numeric (µM). Do not append units.

The examples below pair each entry with its known result.
[Q] Recorded IC50 of O=c1cc(-c2ccc(O)cc2)oc2cc(O[C@@H]3O[C@H](CO)[C@@H](O)[C@H](O)[C@H]3O[C@@H]3OC[C@](O)(CO)[C@H]3O)cc(O)c12 [Apiin] , please.
[A] 199

[Q] Let us now turn to O=c1cc(-c2ccc(O)c(O)c2)oc2cc(OC3OC(CO)C(O)C(O)C3OC3OCC(O)(CO)C3O)cc(O)c12 (centres unmarked) [Graveobioside A]
[A] 104

[Q] And for O=c1cc(-c2ccc(O)cc2)oc2cc(O[C@@H]3O[C@H](CO)[C@@H](O)[C@H](O)[C@H]3O)cc(O)c12 [Apigenin-7-O-Glucoside] ?
[A] 77.5

[Q] What do you have for O=c1cc(-c2ccc(O)c(O)c2)oc2cc(O)cc(O)c12 [Luteolin] ?
[A] 58.8

[Q] Try the compound COc1cc(-c2cc(=O)c3c(O)cc(OC4OC(CO)C(O)C(O)C4OC4OCC(O)(CO)C4O)cc3o2)ccc1O (centres unmarked) [Graveobioside B]
[A] 104

[Q] Now the compound O=c1cc(-c2ccc(O)cc2)oc2cc(O)cc(O)c12 [Apigenin]
[A] 80

[Q] Ok, now COc1cc(-c2cc(=O)c3c(O)cc(O[C@@H]4O[C@H](CO)[C@@H](O)[C@H](O)[C@H]4O)cc3o2)ccc1O [Chrysoeriol-7-O-glucosid]
[A] 39.8

# context switch: different compound, same IC50
[Q] Would you kindly share the measured IC50 for O=c1cc(-c2ccc(O)c(O)c2)oc2cc(O[C@@H]3O[C@H](CO)[C@@H](O)[C@H](O)[C@H]3O)cc(O)c12 [Luteolin-7-O-glucoside] ?
[A] 49.9
